- tested_target: Lysosomal acid glucosylceramidase (Homo sapiens)
- Sequence (P04062 whole entry): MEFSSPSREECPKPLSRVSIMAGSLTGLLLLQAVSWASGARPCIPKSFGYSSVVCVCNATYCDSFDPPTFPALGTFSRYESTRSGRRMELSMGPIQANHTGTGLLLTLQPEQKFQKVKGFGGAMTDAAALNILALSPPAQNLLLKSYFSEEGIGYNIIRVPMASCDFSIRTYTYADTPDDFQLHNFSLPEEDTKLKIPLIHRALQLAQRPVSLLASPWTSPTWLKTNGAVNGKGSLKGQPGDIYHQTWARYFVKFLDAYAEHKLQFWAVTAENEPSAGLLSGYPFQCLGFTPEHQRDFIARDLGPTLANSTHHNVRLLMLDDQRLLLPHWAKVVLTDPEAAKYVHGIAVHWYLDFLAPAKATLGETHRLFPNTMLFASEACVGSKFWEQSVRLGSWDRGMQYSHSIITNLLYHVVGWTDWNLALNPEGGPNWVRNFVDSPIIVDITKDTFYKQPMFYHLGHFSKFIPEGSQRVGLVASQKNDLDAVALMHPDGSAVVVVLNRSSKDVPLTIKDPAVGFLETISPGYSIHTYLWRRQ
- measurement_protocol: Fluorescene-based Assay
- condition_parameters: pH 7
measure: Ki (µM)
The response must be a number in µM with no trailing unit.

Dear colleague, I am looking for the recorded Ki of the following compound: OCCCC1NCC(O)C(O)C1CO (stereo not drawn)
0.11

Field request: Ki | item: CCCC1(CCC)NCC(O)C(O)C1CO (stereo not drawn)
1.4

Form field: reported Ki of CCCC1NCC(O)C(O)C1CO (stereo not drawn)
0.21

====

I'd appreciate it if you could supply Ki values for the items below.
- tested_target: Lysosomal acid glucosylceramidase (Homo sapiens)
- measurement_protocol: Fluorescene-based Assay
- condition_parameters: pH 5.5
Report the figure in µM without appending any unit label.

Requested read-out: Ki. Entry: OCCCC1NCC(O)C(O)C1CO (stereo not drawn)
0.1

Need Ki of CCCC1NCC(O)C(O)C1CO (stereo not drawn) , thanks.
0.61

# get_value(readout='Ki', item= CCCC1(CCC)NCC(O)C(O)C1CO (stereo not drawn) )
0.6
